Data provenance is ChEMBL document CHEMBL3632462.

Test system: Trypanosoma brucei brucei
Experiment: Antitrypanosomal activity against Trypanosoma brucei brucei infected in HEK293 cells assessed as growth inhibition after 72 hrs by Alamar Blue assay
Type: functional, organism-based
Details: HEK293, 72 h
Result Type: IC50

- Compound: "CCOc1ccc(OCc2ccc(C(=O)O)cc2)cc1"
  Reported: "> 50 µM"
- Compound: "CCOc1ccc(OCCCCCC(=O)N(C(C)C)C(C)C)cc1"
  Reported: "2.03 µM"
- Compound: "Cc1ccc(OCc2ccc(C(=O)N3CCCCC3C)cc2)cc1 (centres undefined)"
  Reported: "9.2 µM"
- Compound: "CCOc1ccc(OCc2ccc(C(=O)N3CCC(C)CC3)cc2)cc1"
  Reported: "> 50 µM"
- Compound: "CCOc1ccc(OCc2ccc(C(=O)NC(C)C)cc2)cc1"
  Reported: "> 50 µM"

Prompt line: Check the records and state IC50 for CCc1ccc(OCc2ccc(C(=O)N3CCN(C)CC3)cc2)cc1
Response line: > 50 µM

Prompt line: Give IC50 for the following compound: COc1ccc(OCc2ccc(C(=O)N3CCN(C)CC3)cc2)cc1
Response line: > 50 µM

Prompt line: Supply recorded IC50 for COc1ccc(OCc2ccc(C(=O)N3CCC(C)CC3)cc2)cc1 here.
Response line: > 50 µM

Prompt line: Supply reported IC50 belonging to this compound: CCc1ccc(OCc2ccc(C(=O)N3CCOCC3)cc2)cc1
Response line: 14.8 µM

----------
selectivity ratio reference
Test: Selectivity index, ratio of IC50 for HEK293 cells to IC50 for Trypanosoma brucei brucei infected in HEK293 cells
Format: toxicity, cell-based
Details: human, read-out: Ratio IC50
Please give the numeric answer without any surrounding text.

- Compound: "CCCc1ccc(OCc2ccc(C(=O)N3CCCCC3C)cc2)cc1 (stereo unspecified)"
  selectivity ratio: 8
- Compound: "CCOc1ccc(NCc2ccc(C(=O)N3CCOCC3)cc2)cc1"
  selectivity ratio: 4
- Compound: "CCOc1ccc(OCCCCCC(=O)N(C(C)C)C(C)C)cc1"
  selectivity ratio: 41
- Compound: "CCOc1ccc(OCCCCCC(=O)N2CCCCC2C)cc1 (stereo unspecified)"
  selectivity ratio: 50
- Compound: "CCOc1ccc(NCc2ccc(C(=O)N3CCCCC3)cc2)cc1"
  selectivity ratio: 29

Prompt line: Write down selectivity ratio measured for item Cc1ccc(OCc2ccc(C(=O)N3CCCCC3C)cc2)cc1 (stereo unspecified)
Response line: 9

----------
System: Trypanosoma brucei brucei
Assay: Antitrypanosomal activity against Trypanosoma brucei brucei infected in HEK293 cells assessed as growth inhibition after 72 hrs by Alamar Blue assay
Format: functional, organism-based
Conditions: HEK293, 72 h
pIC50: −log10 of the molar value.
Result Type: pIC50

As a guide, the following entries are already answered.
- Compound: "CCCc1ccc(OCc2ccc(C(=O)N3CCCCC3C)cc2)cc1 (configuration not stated)"
  pIC50: 5.00
- Compound: "COc1ccc(OCc2ccc(C(=O)N(C)c3ccccc3)cc2)cc1"
  pIC50: 4.74
- Compound: "CCOc1ccc(OCCCCCC(=O)N2CCCCC2)cc1"
  pIC50: 5.13
- Compound: "CCOc1ccc(OCCCCCC(=O)N2CCCCC2C)cc1 (configuration not stated)"
  pIC50: 5.78
- Compound: "CCOc1ccc(NCc2ccc(C(=O)N3CCOCC3)cc2)cc1"
  pIC50: 4.69
- Compound: "CCOc1ccc(OCc2ccc(C(=O)N3CCOCC3)cc2)cc1"
  pIC50: 5.38

I. CCOc1ccc(NCc2ccc(C(=O)N3CCCCC3)cc2)cc1
II. CCOc1ccc(OCc2ccc(C(=O)N3CCCC(C)C3)cc2)cc1 (configuration not stated)
Prompt line: Field: lower pIC50 | Options: I / II Which one? Tell me its label.
Response line: I
